For each of the compounds below, state its melting point.

May I ask what melting point has been recorded for CNS(=O)(=O)c1ccc(Nc2nc(-c3ccc(F)cc3)cc3c2c(C)nn3C)cc1.Cl ?
293 to 295 °C

Next compound: CCCc1nn(C)c2c(-c3ccc(S(C)(=O)=O)cc3)nc(-c3ccc(F)cc3)nc12
208 to 210 °C

Next compound: Cc1nn(C)c2c(-c3cccc(S(C)(=O)=O)c3)nc(-c3ccccc3)nc12
210 to 212 °C

Next compound: CCCc1nn(C)c2c(Nc3ccc4c(c3)OCO4)nc(-c3ccc(F)cc3)nc12.Cl
< 260 °C

Next compound: CCCc1nn(C)c2c(-c3ccc(C)cc3)nc(-c3ccc(F)cc3)nc12
148 to 150 °C

Next compound: Cc1nn(C)c2cc(-c3ccc(F)cc3)nc(-c3ccc(S(C)(=O)=O)cc3)c12
228 to 230 °C

Next compound: Cc1nn(C)c2cc(-c3ccc(F)cc3)nc(Nc3ccc(Cl)c(C(F)(F)F)c3)c12.Cl
223 to 225 °C

Next compound: CCCc1nn(C)c2c(Nc3cccc(C(F)(F)F)c3)nc(-c3ccc(F)cc3)nc12.Cl
220 to 222 °C

Next compound: CNC(=O)c1cccc(Nc2nc(-c3ccc(F)cc3)nc3c(C)nn(C)c23)c1.Cl
272 to 274 °C
